Value source: patent US7754718B2

- Test system: MT-2 cells
- method.summary: Cell cytotoxicity assay on MT-2 cells
- Type: cell-based
- condition.info: read-out: Cytotoxity (ID50, μM) MT-2
Where a name gives a salt, the structure may show the parent alone.
Below is a list of entries, each paired with its recorded IC50 value.

Below are worked cases with known answers.
[
  {
    "compound": "O=C1NCc2cc3ccc4c(c3c(-c3ccc5c(c3)OCO5)c21)OCO4",
    "IC50": "> 100 µM"
  },
  {
    "compound": "O=c1[nH][nH]c(=O)c2c(-c3ccc4c(c3)OCO4)c3c4c(cc(Br)c3cc12)OCO4",
    "IC50": "> 100 µM"
  },
  {
    "compound": "O=C(O)c1cc2c(Br)cc3c(c2c(-c2ccc4c(c2)OCO4)c1CO)OCO3 [Compound 45, monosodium salt]",
    "IC50": "50 µM"
  }
]

Field: next compound
// recorded IC50 for `O=C1c2cc3ccc4c(c3c(-c3ccc5c(c3)OCO5)c2C(=O)N1CCCOCc1ccccc1)OCO4` : > 100 µM

---

- System: HBV
- method.summary: In vitro antiviral assay for HBV (Table 1)
- Assay type: cell-based, Hepatitis B virus
- condition.info: Hepatitis B virus, read-out: Antiviral Activities (EC50, μM) HBV
Below is a list of entries, each paired with its recorded EC50 value.

Below are worked cases with known answers.
[
  {
    "compound": "O=C1OCc2c1cc1ccc3c(c1c2-c1ccc2c(c1)OCO2)OCO3 [Compound 2, reference compound]",
    "observed.measurement": "1 µM"
  },
  {
    "compound": "O=C1c2cc3ccc4c(c3c(-c3ccc5c(c3)OCO5)c2CN1CCCO)OCO4 [Compound 21]",
    "observed.measurement": "> 20 µM"
  },
  {
    "compound": "O=C(O)c1cc2ccc3c(c2c(-c2ccc4c(c2)OCO4)c1C(=O)O)OCO3 [Compound 32]",
    "observed.measurement": "> 20 µM"
  },
  {
    "compound": "O=C1OCc2c1cc1c(Cl)cc3c(c1c2-c1ccc2c(c1)OCO2)OCO3 [Compound 37]",
    "observed.measurement": "> 10 µM"
  },
  {
    "compound": "CN1C(=O)c2cc3ccc4c(c3c(-c3ccc5c(c3)OCO5)c2C1=O)OCO4 [Compound 23]",
    "observed.measurement": "> 10 µM"
  }
]

// recorded EC50 for CC(=O)NN1C(=O)c2cc3ccc4c(c3c(-c3ccc5c(c3)OCO5)c2C1=O)OCO4 [Compound 25] : > 10 µM

// recorded EC50 for O=c1[nH][nH]c(=O)c2c(-c3ccc4c(c3)OCO4)c3c4c(cc(Cl)c3cc12)OCO4 [Compound 41] : > 10 µM

// recorded EC50 for COc1ccc(-c2c3c(cc4ccc5c(c24)OCO5)C(=O)NC3)cc1OC [Compound 22] : 0.9 µM

// recorded EC50 for CCOC(=O)c1c(C(=O)OCC)c(-c2ccc3c(c2)OCO3)c2c3c(ccc2c1OC)OCO3 [Compound 35] : > 20 µM

// recorded EC50 for O=C1NCc2c1cc1ccc3c(c1c2-c1ccc2c(c1)OCO2)OCO3 [Compound 18] : 0.08 µM

// recorded EC50 for O=C1NCc2c1cc1c(Br)cc3c(c1c2-c1ccc2c(c1)OCO2)OCO3 [Compound 40] : > 20 µM

// recorded EC50 for CN1Cc2c(cc3ccc4c(c3c2-c2ccc3c(c2)OCO3)OCO4)C1=O [Compound 19] : 1.6 µM

// recorded EC50 for O=C1OCc2c1cc1c(I)cc3c(c1c2-c1ccc2c(c1)OCO2)OCO3 [Compound 39] : > 40 µM

// recorded EC50 for O=C1c2cc3ccc4c(c3c(-c3ccc5c(c3)OCO5)c2CN1CCCOCc1ccccc1)OCO4 [Compound 20] : > 20 µM

---

Below is a list of entries, each paired with its recorded IC50 value.
- System: HepG2 cells
- method.summary: Cell cytotoxicity assay on HepG2 cells, methylene blue staining
- Type: cell-based
- condition.info: Homo sapiens, 72 h, concentration that inhibited 50% of cell growth, 3 days
Field: numeric (µM). Do not append units.

[
  {
    "compound": "COc1ccc(-c2c3c(cc4ccc5c(c24)OCO5)C(=O)NC3)cc1OC",
    "IC50 / µM": 2
  }
]

// recorded IC50 for O=C1OCc2c1cc1ccc3c(c1c2-c1ccc2c(c1)OCO2)OCO3 [Compound 2, reference compound] : 6

---

Below is a list of entries, each paired with its recorded EC50 value.
- System: EBV
- method.summary: In vitro antiviral assay for EBV
- Type: cell-based, Epstein-Barr Virus
- condition.info: human gammaherpesvirus 4, read-out: Antiviral Activities (EC50, μM) EBV

[
  {
    "molecule": "CN1Cc2c(cc3ccc4c(c3c2-c2ccc3c(c2)OCO3)OCO4)C1=O",
    "measurement.target": "EBV",
    "observed.measurement": "> 20 µM"
  }
]

// recorded EC50 for `CCOC(=O)c1c(C(=O)OCC)c(-c2ccc3c(c2)OCO3)c2c3c(ccc2c1OC)OCO3` : > 20 µM

// recorded EC50 for `CN1C(=O)c2cc3ccc4c(c3c(-c3ccc5c(c3)OCO5)c2C1=O)OCO4` : > 20 µM

// recorded EC50 for `O=C1OCc2c1cc1c(I)cc3c(c1c2-c1ccc2c(c1)OCO2)OCO3` : > 10 µM

// recorded EC50 for `O=c1[nH][nH]c(=O)c2c(-c3ccc4c(c3)OCO4)c3c4c(ccc3cc12)OCO4` : > 25 µM

// recorded EC50 for `O=C1OCc2c1c(-c1ccc3c(c1)OCO3)c1c3c(ccc1c2O)OCO3` : > 10 µM

// recorded EC50 for `CC(=O)NN1C(=O)c2cc3ccc4c(c3c(-c3ccc5c(c3)OCO5)c2C1=O)OCO4` : > 20 µM

---

- System: HSV-2
- method.summary: In vitro antiviral assay for HSV-2
- Type: cell-based, Herpes Simplex Virus 2
- condition.info: Human alphaherpesvirus 2, read-out: Antiviral Activities (EC50, μM) HSV-2
Below is a list of entries, each paired with its recorded EC50 value.

[
  {
    "compound": "O=C1c2cc3ccc4c(c3c(-c3ccc5c(c3)OCO5)c2CN1CCCO)OCO4 [Compound 21]",
    "EC50": "7 µM"
  },
  {
    "compound": "O=C1OCc2c1cc1c(Cl)cc3c(c1c2-c1ccc2c(c1)OCO2)OCO3 [Compound 37]",
    "EC50": "> 25 µM"
  },
  {
    "compound": "O=C1OCc2c1cc1c(I)cc3c(c1c2-c1ccc2c(c1)OCO2)OCO3 [Compound 39]",
    "EC50": "> 25 µM"
  },
  {
    "compound": "CC(=O)NN1C(=O)c2cc3ccc4c(c3c(-c3ccc5c(c3)OCO5)c2C1=O)OCO4 [Compound 25]",
    "EC50": "> 40 µM"
  },
  {
    "compound": "CN(C)C(=O)c1cc2ccc3c(c2c(-c2ccc4c(c2)OCO4)c1C(=O)O)OCO3 [Compound 14]",
    "EC50": "> 50 µM"
  },
  {
    "compound": "O=C([O-])c1cc2ccc3c(c2c(-c2ccc4c(c2)OCO4)c1CO)OCO3.[Na+] [Compound 3, monosodium salt]",
    "EC50": "25 µM"
  },
  {
    "compound": "O=C([O-])c1cc2c(Cl)cc3c(c2c(-c2ccc4c(c2)OCO4)c1CO)OCO3.[Na+] [Compound 44, monosodium salt]",
    "EC50": "> 50 µM"
  },
  {
    "compound": "CN1Cc2cc3ccc4c(c3c(-c3ccc5c(c3)OCO5)c2C1=O)OCO4 [Compound 17]",
    "EC50": "14 µM"
  }
]

// recorded EC50 for CC(=O)NN1Cc2c(cc3ccc4c(c3c2-c2ccc3c(c2)OCO3)OCO4)C1=O [Compound 26] : 10 µM

// recorded EC50 for NC(=O)c1cc2ccc3c(c2c(-c2ccc4c(c2)OCO4)c1C(=O)O)OCO3 [Compound 12] : < 0.1 µM

// recorded EC50 for O=C1c2cc3ccc4c(c3c(-c3ccc5c(c3)OCO5)c2C(=O)N1O)OCO4 [Compound 24] : > 30 µM

// recorded EC50 for O=C1OC(=O)c2c1cc1ccc3c(c1c2-c1ccc2c(c1)OCO2)OCO3 [Compound 1] : > 50 µM

// recorded EC50 for O=C(OCc1ccccc1)c1cc2ccc3c(c2c(-c2ccc4c(c2)OCO4)c1COCc1ccccc1)OCO3 [Compound 4] : > 50 µM

// recorded EC50 for O=c1[nH][nH]c(=O)c2c(-c3ccc4c(c3)OCO4)c3c4c(cc(Cl)c3cc12)OCO4 [Compound 41] : > 40 µM

// recorded EC50 for CC(=O)NN1Cc2cc3ccc4c(c3c(-c3ccc5c(c3)OCO5)c2C1=O)OCO4 [Compound 27] : 40 µM

// recorded EC50 for COc1ccc(-c2c(C(=O)O)c(C(N)=O)cc3ccc4c(c23)OCO4)cc1OC [Compound 15] : > 3 µM
